From: paper PMC5774489

- System: HepG2 human hepatocarcinoma
- protocol_text: MTT antiproliferative activity, HepG2
- Type: cell-based
- experimental_setup: Homo sapiens, HepG2, 72 h, read-out: IC50, HepG2
reported_endpoint: pIC50
Please treat pIC50 as minus the base-10 logarithm of the molar concentration.

Short answer for C=C(C)[C@@H]1CC[C@]2(C(=O)O)CC[C@]3(C)[C@H](CC[C@@H]4[C@@]5(C)CC[C@H](O)C(C)(C)[C@@H]5CC[C@]43C)[C@@H]12 : pIC50 was 4.52

---

- Test system: human normal liver cells (L02)
- protocol_text: MTT antiproliferative activity, L02
- Format: cell-based
- experimental_setup: Homo sapiens, 72 h, read-out: IC50, L02
reported_endpoint: IC50 (µM)
The answer is to be given in µM; state only the numeric part.

C=C(C)[C@@H]1CC[C@]2(C(=O)O)CC[C@]3(C)[C@H](CC[C@@H]4[C@@]5(C)CC[C@H](O)C(C)(C)[C@@H]5CC[C@]43C)[C@@H]12 [BA, Betulinic acid] has a reported IC50 of 96.3
